Provenance of the data: paper PMC7558015

# Tmax values compiled below
- PROTOCOL: Pharmacokinetic study after oral administration in rats
- Format: in vivo
- PROTOCOL CONDITIONS: male, Sprague–Dawley, rat, plasma, po, 50 mg/kg, plasma, after Berberine Formulation PO 50 mg/kg, rats; read-out: Tmax (converted)

MOLECULAR STRING: COc1ccc2cc3[n+](cc2c1O)CCc1cc2c(cc1-3)OCO2
Tmax: 55 min
--
MOLECULAR STRING: COc1ccc2cc3[n+](cc2c1OC)CCc1cc2c(cc1-3)OCO2
Tmax: 35 min
--
MOLECULAR STRING: COc1c(O)ccc2cc3[n+](cc12)CCc1cc2c(cc1-3)OCO2
Tmax: 640 min

* * *

- PROTOCOL: Pharmacokinetic study after oral administration in rats
- Type: in vivo
- PROTOCOL CONDITIONS: male, Sprague–Dawley, rat, plasma, po, 50 mg/kg, plasma, after Berberine Formulation PO 50 mg/kg, rats
PROPERTY: AUC (ng·h/mL)

COMPOUND: COc1c(O)ccc2cc3[n+](cc12)CCc1cc2c(cc1-3)OCO2 [Thalifendine]
UNIT TEXT: ng·h/mL
VALUE MEASURED: 28.1

COMPOUND: COc1ccc2cc3[n+](cc2c1OC)CCc1cc2c(cc1-3)OCO2 [Berberine]
UNIT TEXT: ng·h/mL
VALUE MEASURED: 537

COMPOUND: COc1ccc2cc3[n+](cc2c1O)CCc1cc2c(cc1-3)OCO2 [Berberrubine]
UNIT TEXT: ng·h/mL
VALUE MEASURED: 1.73

* * *

- PROTOCOL: Caco-2 permeability / transport of berberine and berberine formulation
- Format: in vitro ADME
- PROTOCOL CONDITIONS: human, Caco-2, pH 7.4, with cyclosporine A 25 μM, berberine 10 μM, presence of CsA 25 μM

MOLECULAR STRING: COc1ccc2cc3[n+](cc2c1OC)CCc1cc2c(cc1-3)OCO2
efflux ratio at 1 h, 10 μM: 2.2

* * *

- PROTOCOL: Pharmacokinetic study after oral administration in rats
- Assay type: in vivo
- PROTOCOL CONDITIONS: male, Sprague–Dawley, rat, plasma, po, 50 mg/kg, plasma, after Berberine Formulation PO 50 mg/kg, rats
- Procedure: All the animal procedures were approved by the animal care and use committee of Kyungpook National University (Daegu, Korea; Approval No. KNU-2014-0097 and KNU-2019-0004). […] Mass spectra were recorded by electrospray ionization with a positive mode. […] The thalifendine-glucuronide, berberrubine-glucuronide, and thalifendine-sulfate were relatively quantitated using berberine’s standard curve, since the authentic standard compounds were not available. […]

COMPOUND: COc1ccc2cc3[n+](cc2c1OC)CCc1cc2c(cc1-3)OCO2 [Berberine]
UNIT TEXT: ng/mL
Cmax: 140

COMPOUND: COc1c(O)ccc2cc3[n+](cc12)CCc1cc2c(cc1-3)OCO2 [Thalifendine]
UNIT TEXT: ng/mL
Cmax: 5.45

COMPOUND: COc1ccc2cc3[n+](cc2c1O)CCc1cc2c(cc1-3)OCO2 [Berberrubine]
UNIT TEXT: ng/mL
Cmax: 0.31

* * *

- PROTOCOL: Pharmacokinetic study after oral administration in rats
- Type: in vivo
- PROTOCOL CONDITIONS: male, Sprague–Dawley, rat, plasma, po, 50 mg/kg, plasma, after Berberine PO 50 mg/kg, rats; read-out: Tmax (converted)

MOLECULAR STRING: COc1ccc2cc3[n+](cc2c1OC)CCc1cc2c(cc1-3)OCO2
Tmax, h: 0.5
//
MOLECULAR STRING: COc1c(O)ccc2cc3[n+](cc12)CCc1cc2c(cc1-3)OCO2
Tmax, h: 7
//
MOLECULAR STRING: COc1ccc2cc3[n+](cc2c1O)CCc1cc2c(cc1-3)OCO2
Tmax, h: 4.17
